Test system: Influenza B virus
assay: Antiviral activity against Influenza virus […] B/Panama/45/1990 infected in MDCK cells at 0.001 MOI assessed as inhibition of virus cytopathic effect measured after 48 hrs by crystal violet staining based assay
Format: functional, organism-based
condition-description: B/Panama/45/1990, MDCK
assay-readout: EC50 (µM)
The figure you give is taken to be in µM; do not add the unit.

[
  {
    "molecule": "O=C(O[C@@H]1Cc2c(O)cc(O)cc2O[C@@H]1c1ccc(O)c(O)c1)c1cc(O)c(O)c(O)c1 [EPICATECHIN GALLATE]",
    "target-under-test": "Influenza B virus",
    "assay-readout": "EC50",
    "unit-of-measure": "µM",
    "numeric-value": 22
  },
  {
    "molecule": "O=C(O[C@@H]1Cc2c(O)cc(O)cc2O[C@@H]1c1cc(O)c(O)c(O)c1)c1cc(O)c(O)c(O)c1 [EPIGALOCATECHIN GALLATE]",
    "target-under-test": "Influenza B virus",
    "assay-readout": "EC50",
    "unit-of-measure": "µM",
    "numeric-value": 5.7
  }
]

Now turn to the next molecule.
According to the records, this molecule COc1cc(/C=C/C(=O)CC(=O)/C=C/c2ccc(O)c(OC)c2)ccc1O [CURCUMIN] displays EC50 of 0.47

Numbers sourced from ChEMBL document CHEMBL6134807.
